The molecules listed here are annotated with their IC50.
# Target system: recombinant human SAE enzyme (Homo sapiens (Human), UniProt Q9UBT2)
# Sequence (Q9UBT2 whole entry): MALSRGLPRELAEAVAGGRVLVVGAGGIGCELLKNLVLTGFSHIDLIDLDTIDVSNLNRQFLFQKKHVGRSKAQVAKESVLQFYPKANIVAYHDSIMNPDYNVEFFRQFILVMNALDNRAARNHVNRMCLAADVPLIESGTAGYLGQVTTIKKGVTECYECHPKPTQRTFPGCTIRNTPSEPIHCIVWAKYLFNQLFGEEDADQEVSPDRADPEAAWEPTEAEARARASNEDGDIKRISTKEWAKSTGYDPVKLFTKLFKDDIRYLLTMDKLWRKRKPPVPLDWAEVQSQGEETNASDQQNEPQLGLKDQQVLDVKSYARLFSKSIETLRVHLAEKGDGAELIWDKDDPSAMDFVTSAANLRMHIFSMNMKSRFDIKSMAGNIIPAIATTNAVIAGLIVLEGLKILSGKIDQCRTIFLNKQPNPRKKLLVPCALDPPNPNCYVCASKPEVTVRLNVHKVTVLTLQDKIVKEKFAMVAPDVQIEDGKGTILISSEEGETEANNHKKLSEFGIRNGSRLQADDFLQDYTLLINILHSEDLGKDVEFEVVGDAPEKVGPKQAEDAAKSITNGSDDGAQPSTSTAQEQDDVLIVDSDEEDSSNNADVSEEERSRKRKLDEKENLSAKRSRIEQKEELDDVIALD
# Sequence (Q9UBE0 whole entry partner): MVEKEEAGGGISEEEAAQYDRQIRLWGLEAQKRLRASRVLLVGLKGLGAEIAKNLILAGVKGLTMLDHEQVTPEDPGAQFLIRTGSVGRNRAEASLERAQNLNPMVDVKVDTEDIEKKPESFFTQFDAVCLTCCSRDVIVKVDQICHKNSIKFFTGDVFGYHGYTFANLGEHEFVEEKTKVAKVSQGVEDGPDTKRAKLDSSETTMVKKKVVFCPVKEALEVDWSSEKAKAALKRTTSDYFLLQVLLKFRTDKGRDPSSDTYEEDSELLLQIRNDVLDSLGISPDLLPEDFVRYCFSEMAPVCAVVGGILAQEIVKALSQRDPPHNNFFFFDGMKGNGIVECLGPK
# Experiment notes: SAE HTRF enzyme assay
# Format: biochemical
# Condition summary: class symbols A/B/C

Molecule	Target system	IC50
Cc1sc(C(=O)c2cncnc2N[C@@H]2C[C@H](COS(N)(=O)=O)[C@@H](O)C2)cc1CN1CCc2ccc(C#N)cc21	recombinant human SAE enzyme (Homo sapiens (Human), UniProt Q9UBT2)	< 10 nM
NS(=O)(=O)OC[C@H]1C[C@@H](Nc2ncncc2C(=O)c2cc(Cc3ccccc3)c(Cc3ccccc3)s2)C[C@@H]1O	recombinant human SAE enzyme (Homo sapiens (Human), UniProt Q9UBT2)	< 10 nM
NS(=O)(=O)OC[C@H]1C[C@@H](Nc2ncncc2C(=O)c2cc([C@H]3NCCc4ccccc43)c(Cl)s2)C[C@@H]1O (single isomer, unassigned) [I-279b]	recombinant human SAE enzyme (Homo sapiens (Human), UniProt Q9UBT2)	10 to 100 nM
Cc1sc(C(=O)c2cncnc2N[C@@H]2C[C@H](COS(N)(=O)=O)[C@@H](O)C2)cc1[C@@H]1OCCc2ccc(C3CC3)cc21 (mixture of isomers) [I-277]	recombinant human SAE enzyme (Homo sapiens (Human), UniProt Q9UBT2)	< 10 nM
NS(=O)(=O)OC[C@H]1C[C@@H](Nc2ncncc2C(=O)c2cc([C@H](O)C3CCOCC3)c(Cl)s2)C[C@@H]1O (mixture of isomers)	recombinant human SAE enzyme (Homo sapiens (Human), UniProt Q9UBT2)	10 to 100 nM
NS(=O)(=O)OC[C@H]1C[C@@H](Nc2ncncc2C(=O)c2cc([C@@H]3OCCc4cc(F)c(F)cc43)cs2)C[C@@H]1O (single isomer, unassigned)	recombinant human SAE enzyme (Homo sapiens (Human), UniProt Q9UBT2)	< 10 nM
COCc1cc(C(=O)c2cncnc2N[C@@H]2C[C@H](COS(N)(=O)=O)[C@@H](O)C2)sc1Cl	recombinant human SAE enzyme (Homo sapiens (Human), UniProt Q9UBT2)	100 to 1000 nM
CC(C)(O)c1csc(C(=O)c2cncnc2N[C@@H]2C[C@H](COS(N)(=O)=O)[C@@H](O)C2)c1	recombinant human SAE enzyme (Homo sapiens (Human), UniProt Q9UBT2)	100 to 1000 nM
Cc1sc(C(=O)c2cncnc2N[C@@H]2C[C@H](COS(N)(=O)=O)[C@@H](O)C2)cc1[S@+]([O-])c1cccc(Cl)c1.Cc1sc(C(=O)c2cncnc2N[C@@H]2C[C@H](COS(N)(=O)=O)[C@@H](O)C2)cc1[S@@+]([O-])c1cccc(Cl)c1 (mixture of isomers)	recombinant human SAE enzyme (Homo sapiens (Human), UniProt Q9UBT2)	< 10 nM
NS(=O)(=O)OC[C@H]1C[C@@H](Nc2ncncc2C(=O)c2cc(C(=O)c3cccc(Cl)c3)c(Cl)s2)C[C@@H]1O	recombinant human SAE enzyme (Homo sapiens (Human), UniProt Q9UBT2)	100 to 1000 nM
NS(=O)(=O)OC[C@H]1C[C@@H](Nc2ncncc2C(=O)c2cc(COc3ccccc3Br)cs2)C[C@@H]1O	recombinant human SAE enzyme (Homo sapiens (Human), UniProt Q9UBT2)	< 10 nM
Cc1sc(C(=O)c2cncnc2N[C@@H]2C[C@H](COS(N)(=O)=O)[C@@H](O)C2)cc1[C@H](O)c1cccc(Cl)c1 (single isomer, unassigned) [I-11b]	recombinant human SAE enzyme (Homo sapiens (Human), UniProt Q9UBT2)	< 10 nM
